This section presents compounds with their documented IC50 values.
System: SF126 cells
Assay: MTT cell proliferation assay, SF126 GBM cells
Type: cell-based, human
Conditions: three day treatment, 95% confidence limits (Table 4), read-out: IC50 antiproliferative, SF126
Property Name: IC50

INSERT INTO assay_data (chem_smiles, meas_value) VALUES
  ('Cc1c(C(=O)c2cccc3ccccc23)c2cccc3c2n1[C@H](CN1CCOCC1)CO3', '1300 nM'),
  ('CCCCCCC(C)(C)c1ccc([C@@H]2C[C@H](O)CC[C@H]2CCCO)c(O)c1', '3300 nM');

* * *

System: SF126 cells
Assay: MTT cell proliferation assay, SF126 GBM cells
Assay type: cell-based, human
Conditions: Homo sapiens, SF-126, 168 h, seven day treatment, 95% confidence limits, read-out: IC50 antiproliferative, SF126
Property Name: IC50

INSERT INTO measurements (compound, meas_value) VALUES
  ('CCCCCc1cc(O)c2c(c1)OC(C)(C)C1CCC(C)=CC21 (stereo not shown) [Δ^9-THC, tetrahydrocannabinol]', '900 nM');

* * *

Test system: SF126 cells
Test: MTT cell proliferation assay, SF126 GBM cells
Format: cell-based, human
Conditions: Homo sapiens, SF-126, limits 0.64-0.82, reported with the Table 3 experiments, read-out: IC50 antiproliferative, SF126
Property Name: IC50 (nM)

INSERT INTO results (chem_smiles, scale_unit, meas_value) VALUES
  ('C=C(C)[C@@H]1CCC(C)=C[C@H]1c1c(O)cc(CCCCC)cc1O', 'nM', 730);

* * *

System: MDA-MB436 cells
Experiment: MTT cell proliferation assay, MDA-MB436
Details: Homo sapiens, MDA-MB-436, 72 h, read-out: IC50 antiproliferative, MDA-MB436
pIC50: −log10 of the molar value.
This section presents compounds with their documented pIC50 values.
Property Name: pIC50

INSERT INTO assay_data (compound, assayed_target, property_name, meas_value) VALUES
  ('CCCCCc1cc(O)c2c(c1)OC(C)(C)C1CCC(C)=CC21 (stereo not shown) [Δ^9-THC, tetrahydrocannabinol]', 'MDA-MB436 cells', 'pIC50', 5.60),
  ('CCCCCc1cc(O)c2c(c1)OC(C)(C)c1ccc(C)cc1-2', 'MDA-MB436 cells', 'pIC50', 5.59),
  ('C=C(C)[C@@H]1CCC(C)=C[C@H]1c1c(O)cc(CCCCC)cc1O', 'MDA-MB436 cells', 'pIC50', 5.82),
  ('CCCCCc1cc(O)c(C/C=C(\C)CCC=C(C)C)c(O)c1', 'MDA-MB436 cells', 'pIC50', 5.68);

* * *

Tested on: SF126 cells
Test: MTT cell proliferation assay, SF126 GBM cells
Format: cell-based, human
Conditions: seven day treatment, 95% confidence limits, read-out: IC50 antiproliferative, SF126
Property Name: IC50 (nM)

INSERT INTO assay_data (chem_smiles, property_name, meas_value) VALUES
  ('Cc1c(C(=O)c2cccc3ccccc23)c2cccc3c2n1[C@H](CN1CCOCC1)CO3', 'IC50', 840);
